Would you kindly list IC50 for each of these molecules?
test system: human keratinocytes HaCaT; test: Antiproliferative activity, MTT dye reduction assay, HaCaT; format: cell-based; conditions: Homo sapiens, non-tumor keratinocytes HaCaT, 72 h, n = 6, read-out: Mean IC50 ± SD, HaCaT
Dear colleague, please return just the value in µM, with no unit written.

What value of IC50 has been recorded for this entry: CCOC(=O)c1cc(-c2ccc(Cl)cc2)n(C(Cc2ccccc2)C(=O)N/N=C/c2c(C)[nH]c(C(=O)OCC)c2C)c1C (centres unmarked)
171

What value of IC50 has been recorded for this entry: CCOC(=O)c1cc(-c2ccc(Cl)cc2)n(C(Cc2ccccc2)C(=O)N/N=C/c2c(C)[nH]c(C)c2C(=O)OCC)c1C (centres unmarked)
11

What value of IC50 has been recorded for this entry: CCOC(=O)c1cc(-c2ccc(Cl)cc2)n(C(Cc2ccccc2)C(=O)N/N=C/c2[nH]c(C)c(C(=O)OCC)c2C)c1C (centres unmarked)
544

What value of IC50 has been recorded for this entry: CCOC(=O)c1cc(-c2ccc(Cl)cc2)n(C(Cc2ccccc2)C(=O)NN)c1C (centres unmarked)
9.64

What value of IC50 has been recorded for this entry: CCOC(=O)c1cc(-c2ccc(Cl)cc2)n(C(Cc2ccccc2)C(=O)N/N=C/c2[nH]c(C(=O)OCC)c(C)c2C(=O)OCC)c1C (centres unmarked)
503
